Consider the following compounds; for each one, report its inhibition at 10 µM.
- TARGET UNDER TEST: GPR73 (prokineticin 1 receptor) (Homo sapiens, UniProt Q8TCW9)
- Construct: expressed in transfected cells; host or cells: HEK 293
- Sequence (Q8TCW9 whole entry, species assumed): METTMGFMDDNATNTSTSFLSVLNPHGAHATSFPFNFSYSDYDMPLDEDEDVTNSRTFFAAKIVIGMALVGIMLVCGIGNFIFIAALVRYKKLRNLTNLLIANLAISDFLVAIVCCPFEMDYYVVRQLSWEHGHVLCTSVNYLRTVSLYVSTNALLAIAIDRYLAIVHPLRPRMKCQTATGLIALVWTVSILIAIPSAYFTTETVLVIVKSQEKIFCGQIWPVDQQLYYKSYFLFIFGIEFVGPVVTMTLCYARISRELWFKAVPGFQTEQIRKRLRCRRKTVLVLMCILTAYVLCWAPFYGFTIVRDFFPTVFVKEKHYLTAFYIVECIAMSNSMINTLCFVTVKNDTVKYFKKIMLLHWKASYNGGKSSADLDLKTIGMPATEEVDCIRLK
- ASSAY DETAILS: PK1 functional assay: Ca2+ mobilization screening for PK1 antagonists on the FLIPR
- Format: cell-based
- COND: HEK293, 10 μM compound; HEK 293 GPR73 cells; multiple values = multiple testing; read-out: Ca^2+ Mobilization % Inh @ 10 μM
Give bare numbers, in %.

Here's what some known entries look like.
{"COMPOUND": "CCCCNc1ncccc1CNc1nc(=O)n(Cc2ccc(F)cc2)c(=O)n1Cc1ccc(OC)cc1", "UNIT SYMBOL": "%", "inhibition at 10 µM": 89}
{"COMPOUND": "COc1ccc(Cn2c(NCc3cccnc3N)nc(=O)n(Cc3ccc([N+](=O)[O-])cc3)c2=O)cc1", "UNIT SYMBOL": "%", "inhibition at 10 µM": 80}
{"COMPOUND": "COc1ccc(Cn2c(NCc3cnc(C)cc3C)nc(=O)n(Cc3cccc(OC)c3)c2=O)cc1", "UNIT SYMBOL": "%", "inhibition at 10 µM": 57}
{"COMPOUND": "Cc1cc(C)c(CNc2nc(=O)n(Cc3ccc4c(c3)CCO4)c(=O)n2Cc2ccc3c(c2)CCO3)c(N)n1", "UNIT SYMBOL": "%", "inhibition at 10 µM": 92}

Please state, for each entry, its recorded inhibition at 10 µM.
1. COc1ccc(Cn2c(NCc3c(OC)ccnc3N)nc(=O)n(Cc3ccc(OC)cc3)c2=O)cc1
2. COc1ccc(Cn2c(NCc3cccnc3N)nc(=O)n(Cc3ccc(-n4cccn4)cc3)c2=O)cc1
3. Cc1cc(C)c(CNc2nc(=O)n(Cc3ccc(I)cc3)c(=O)n2Cc2ccc(OC(F)F)cc2)cn1
4. COc1ccc(Cn2c(NCc3ccc(C(F)(F)F)nc3)nc(=O)n(Cc3ccc(OC)cc3)c2=O)cc1
5. CCN1CCCC1CNc1ncccc1CNc1nc(=O)n(Cc2ccc(OC)cc2)c(=O)n1Cc1ccc(OC)cc1 (stereo not shown)

Result:
95
71
31
76
94

Recorded values, source patent US20080287445A1.
